System: RPMI-8226 leukemia
Experiment: NCI-60 one-dose screen, 48 h (100 = growth as untreated, 0 = no growth, -100 = all killed)
Details: 10 µM unless noted
Method: Growth inhibition of the RPMI-8226 human tumor cell line is measured as a screen for anti-cancer activity. Cells are grown in 96 well plates and exposed to the test compound for 48 hours. Compounds are tested at a single concentration, which is 10^-5 M for most compounds. The reported endpoint is percent growth (GI% or GIPRCNT), where numbers from 0 - 100% represent growth inhibition, and numbers from -100% - 0 represent cell death. For example, a value of 40 represents 60% growth inhibition. […]
About 83,000 compounds went through this panel and 20% of them were active in at least one assay; those are over-represented in the sample as a whole.
observedProperty: growth (%)
Your answer is read as %, so omit the unit and give the number.

# count of solved cases: 3
{"molecule": "CCN(CC)N=Nc1nn(C(=O)Nc2ccc(Cc3ccccc3)cc2)c2ccc(Cl)cc12", "growth, %": 57.1}
{"molecule": "COC(=O)[C@]12CC[C@@H](C)[C@H](C)[C@@H]1C1=CC[C@@H]3[C@@]4(C)C(C=O)=C[C@@](C)(CO)C4=CC[C@@]3(C)[C@]1(C)CC2", "growth, %": 12.8}
{"molecule": "O=C(O)CC1Sc2ccccc2NC1=O (centres undefined)", "growth, %": 96}

Consider the additional molecule presented here.
Incoming: API: value(readout=growth, system=RPMI-8226 leukemia) for record C[N+](C)(C)CCOC(OCC[N+](C)(C)C)(c1ccccc1)c1ccccc1
Outgoing: 106

====

growth listing for selected compounds.
tested on: SF-295 CNS; test: NCI-60 one-dose screen, 48 h (100 = growth as untreated, 0 = no growth, -100 = all killed); settings: 10 µM unless noted
Compounds without any hit were thinned out: in the full panel of roughly 83,000, 20% have a hit. Activity calls are given as the source filed them. How the source made its calls: active means growth percent below 10; inactive means the rest.

// worked examples, growth included
{"compound": "COc1ccc(O)c(-c2cc(-c3ccccc3)c(C#N)c(=O)[nH]2)c1", "growth": "95.2% (inactive)"}
{"compound": "O=C(/C=C/c1ccccc1)c1ccc2ccccc2c1", "growth": "107% (inactive)"}
{"compound": "[2H]c1nc(Nc2ncc(F)c(-c3cc(F)c4nc(C)n(C(C)C)c4c3)n2)c([2H])c([2H])c1CN1CCN(C([2H])([2H])C([2H])([2H])[2H])CC1", "growth": "57.8% (inactive)"}
{"compound": "Fc1ccc(Nc2nc3nonc3nc2Nc2ccc(F)cc2)cc1", "growth": "-20.7% (active)"}

Now take the following compound into account.
Incoming: I'd like to know its growth. The compound in question is CCC(=O)OC1=C(C)SC2=NC(c3ccc(Cl)c(Cl)c3)=CC(c3cc(OC)c(OC)c(OC)c3)N21 (stereo not given)
Outgoing: 94.8% (inactive)

====

tested on: K-562 leukemia; test: NCI-60 one-dose screen, 48 h (100 = growth as untreated, 0 = no growth, -100 = all killed); conditions: 10 µM unless noted
About 83,000 compounds went through this panel and 20% of them were active in at least one assay; those are over-represented in the sample as a whole.
observedProperty: growth (%)
Could you give me the number in %? Just the number is fine.

Some solved entries appear below for comparison.
{"molecule": "Nc1ccc2c(S(=O)(=O)O)ccc(S(=O)(=O)O)c2c1", "reading": 90.6}
{"molecule": "COc1cc2ccccc2cc1C(=O)NC(=S)Nc1ccc(-c2nc3ccccc3[nH]2)cc1", "reading": 75.6}
{"molecule": "Nc1ccn(C2OC(F)(CO)C(O)C2F)c(=O)n1 (stereo not drawn)", "reading": 69}
{"molecule": "O=C(/C=C/C12c3ccccc3C(c3ccccc31)C1C(=O)NC(=O)C12)c1ccc(Cl)cc1 (stereo not drawn)", "reading": 8.8}
{"molecule": "COc1ccc(C2CC(c3ccc4ccccc4c3)=NN2c2nc(O)c(C3=c4cc(Cl)ccc4=NC3=O)s2)cc1 (stereo not drawn)", "reading": -27.2}

Incoming: Would you mind telling me what growth value was observed for Cl.[Pt].[c-]1ccccc1-c1ccccn1.c1ccc(P(c2ccccc2)C([PH+](c2ccccc2)c2ccccc2)[PH+](c2ccccc2)c2ccccc2)cc1 ?
Outgoing: 11

Incoming: What about CS(=O)(=O)c1ccc(N/N=C/c2c(-c3ccc(S(C)(=O)=O)cc3)[nH]c3ccc(F)cc23)cc1 ?
Outgoing: 10.5

Incoming: Another: CC(=O)c1ccc2c(c1)CCN2
Outgoing: 111

Incoming: Now the same for CC(C)(C)CC(C)(C)Nc1c(-c2ccc(-c3ccccc3)cc2)nc2cnccn12
Outgoing: 62.7

Incoming: CS(=O)(=O)c1ccc(-c2nc3cc(Cl)ccc3n2CC(=O)NO)cc1 , same question.
Outgoing: 95.7

Incoming: Consider next the molecule C=C(C)[C@@H]1CC[C@]2(CO)CC[C@]3(C)[C@H](CC[C@@H]4[C@@]5(C)C=C(C#N)C(=O)C(C)(C)[C@@H]5CC[C@]43C)[C@@H]12 in the same way.
Outgoing: 7.75

Incoming: Same thing, different molecule: CCN(CC)CCCC(C)NCc1ccccc1 (stereo not drawn)
Outgoing: 118

Incoming: Another molecule: Cc1cc(C(c2ccccc2)c2ccccc2)ccc1NS(=O)(=O)c1ccccc1
Outgoing: 65.1
